experiment-summary: cn = amount concentration of the nth substance listed, in mol/dm3
study-conditions: 323.15 K; 101 kPa; Liquid; c1 = 0.1
property-name: viscosity (mPa·s)

OC[C@@H](O)[C@@H](O[C@H]1O[C@H](CO)[C@@H](O)[C@H](O)[C@H]1O)[C@H](O)[C@@H](O)CO [4-O-α-D-glucopyranosyl-D-glucitol] + O    0.6083
OC[C@@H](O)[C@@H](O)[C@H](O)[C@H](O)CO [mannitol] + O    0.5782
OC[C@@H](O)[C@@H](O)[C@H](O)[C@@H](O)CO [D-sorbitol] + O    0.5711
OC[C@@H](O)[C@@H](O)CO [meso-1,2,3,4-butanetetrol] + O    0.5663
OC[C@@H](O)[C@H](O)[C@@H](O)CO [xylitol] + O    0.5687

----------
experiment-summary: cn = amount concentration of the nth substance listed, in mol/dm3
study-conditions: 323.15 K; 101 kPa; Liquid; c1 = 0.7
property-name: viscosity (mPa·s)

Examples with answers:
OC[C@@H](O)[C@@H](O)[C@H](O)[C@H](O)CO [mannitol] + O    0.7849
OC[C@@H](O)[C@@H](O)CO [meso-1,2,3,4-butanetetrol] + O    0.6734
OC[C@@H](O)[C@H](O)[C@@H](O)CO [xylitol] + O    0.7063

(P) OC[C@@H](O)[C@@H](O[C@H]1O[C@H](CO)[C@@H](O)[C@H](O)[C@H]1O)[C@H](O)[C@@H](O)CO [4-O-α-D-glucopyranosyl-D-glucitol] + O
(Q) OC[C@@H](O)[C@@H](O)[C@H](O)[C@@H](O)CO [D-sorbitol] + O
input: Between P and Q , whose measured viscosity reads higher? Mark your answer with the label of the selected entry.
output: P
(P: 1.061 mPa·s, Q: 0.7392 mPa·s)

----------
experiment-summary: cn = amount concentration of the nth substance listed, in mol/dm3
study-conditions: 313.15 K; 101 kPa; Liquid; c1 = 0.2
property-name: viscosity (mPa·s)

OC[C@@H](O)[C@@H](O[C@H]1O[C@H](CO)[C@@H](O)[C@H](O)[C@H]1O)[C@H](O)[C@@H](O)CO [4-O-α-D-glucopyranosyl-D-glucitol] + O    0.7706
OC[C@@H](O)[C@@H](O)[C@H](O)[C@H](O)CO [mannitol] + O    0.7468
OC[C@@H](O)[C@@H](O)[C@H](O)[C@@H](O)CO [D-sorbitol] + O    0.7109
OC[C@@H](O)[C@@H](O)CO [meso-1,2,3,4-butanetetrol] + O    0.7005
OC[C@@H](O)[C@H](O)[C@@H](O)CO [xylitol] + O    0.7057

----------
experiment-summary: cn = amount concentration of the nth substance listed, in mol/dm3
study-conditions: 293.15 K; 101 kPa; Liquid; c1 = 0.6
property-name: viscosity (mPa·s)

OC[C@@H](O)[C@@H](O)CO [meso-1,2,3,4-butanetetrol] + O    1.169

(a) OC[C@@H](O)[C@@H](O)[C@H](O)[C@@H](O)CO [D-sorbitol] + O
(b) OC[C@@H](O)[C@@H](O[C@H]1O[C@H](CO)[C@@H](O)[C@H](O)[C@H]1O)[C@H](O)[C@@H](O)CO [4-O-α-D-glucopyranosyl-D-glucitol] + O
input: Between a and b , whose measured viscosity reads higher? Mark your answer with the label of the selected entry.
output: b
